molecules and their reported solubility kinetic
# DETAILS: buffer; pH 7.4; 200.0 µM

# SMILES TEXT, UNITS OF MEASURE, VALUE COMPARATOR, solubility kinetic
data = [
    ("COc1ccccc1NC(=O)c1cc2c(cc1Cl)N1CCCCCC1=NS2(=O)=O", "mg/mL", "=", 0.0021),
    ("Cc1nc(C)c(C(=O)OCC(=O)N(C)c2ccccc2)s1", "mg/mL", ">", 0.0457),
    ("Cc1noc(C)c1C(=O)Nc1sccc1C(N)=O", "mg/mL", "=", 0.0077),
    ("CC(C)CCn1cnc2c(oc3nc4c(cc32)CCCC4)c1=O", "mg/mL", "=", 0.043),
    ("Cc1cc(C)n2nc(C(=O)OCC(=O)NCc3ccc(F)cc3)nc2n1", "mg/mL", ">", 0.0536),
]
